tested.system: A/Fukui/45/2004 (NA E119V) neuraminidase (NA) (Influenza A virus, UniProt C6ELZ0, E119V)
Assay type: biochemical, influenza A(H3N2) virus
pIC50: −log10 of the molar value.
quantity.name: pIC50

CCC(CC)[C@H](NC(C)=O)[C@@H]1[C@H](O)[C@@H](C(=O)O)C[C@H]1N=C(N)N    9.70

----------
Test system: A/Fukui/45/2004 (NA E119V)
Assay type: cell-based, influenza A(H3N2) virus
recorded.conditions: read-out: IC50, focus reduction
pIC50: −log10 of the molar value.
quantity.name: pIC50

O=C1c2c(O)c(=O)ccn2N([C@@H]2c3ccccc3SCc3c2ccc(F)c3F)[C@@H]2COCCN12 [Baloxavir, baloxavir acid]    9.21
